Ref: the supplement of paper PMC8728848

target: Neu5Ac(a2-3)Gal(b1-4)[Fuc(a1-3)]GlcNAc(b1-3)GalNAc; assay: glycan array binding signal (z-score within array); higher = stronger binding; details: glycan notation: IUPAC condensed, linker removed
Shown is part of a subset that was picked to be rich in the strongest signals.
endpoint_name: glycan array binding signal (z-score)

>>> measured("BabA (Helicobacter pylori), O52269_HELPY (protein) AEDDGFYMSAGYQIGEAAQMVKNTKGIQELSDNYENLSNLLTRYSTLNTLIKLSADPSAVNAARENLGASAKNLIGDTKNSPAYQAVLLAINAAVGFWNVVGYVTQCGGNANGQKSTSSTTIFNNEPGYRSTSITCSLNGHMPGYYGPMSIENFKKLNEAYQILQTALKNGLPALKENNGTVNVTYSYTCSGEGNDNCSLQTTGVTNQNNGTKTETQTIDGKSVTTTISSKVVDSQ")
0.626
>>> measured("CFEM-CGl (Candida glabrata), Q6FRS0 (protein) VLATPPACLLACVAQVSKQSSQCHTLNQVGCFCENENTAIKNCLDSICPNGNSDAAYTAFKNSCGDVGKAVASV")
3.44
>>> measured("Epa19 (Candida glabrata) (protein) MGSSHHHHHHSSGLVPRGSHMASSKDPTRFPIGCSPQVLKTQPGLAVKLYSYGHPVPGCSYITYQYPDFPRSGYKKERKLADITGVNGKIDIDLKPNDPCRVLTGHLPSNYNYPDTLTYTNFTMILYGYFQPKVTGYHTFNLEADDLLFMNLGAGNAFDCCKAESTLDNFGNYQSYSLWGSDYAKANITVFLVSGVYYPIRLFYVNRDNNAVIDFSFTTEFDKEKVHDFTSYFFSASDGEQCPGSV")
3.04
